B1: CHMP4C (parent)
chain: SSKSRAAPSPQEALVRLRETEEML

variants of: B1; assay: protein stability index of a GFP-peptide fusion (GPS, HEK-293T) (PSI 1-6); higher = more stable; settings: c terminus: a fixed tail appended;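 further: lentivirally expressed fusions sorted by FACS into six bins by GFP to DsRed ratio, PSI derived from sequencing read proportions per bin multiplied by bin number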
Entry flag: criterion met if protein stability index reaches 2; criterion not met if it does not.

Is protein stability index at least 2? Consider R18A
criterion not met

Is protein stability index at least 2? Consider P10Y
criterion met

Is protein stability index at least 2? Consider R5L
criterion not met

Is protein stability index at least 2? Consider L14P
criterion met

Is protein stability index at least 2? Consider V15S
criterion met

Is protein stability index at least 2? Consider S2A
criterion met

Is protein stability index at least 2? Consider R18Q
criterion met

Is protein stability index at least 2? Consider E12F
criterion met

Is protein stability index at least 2? Consider A13G
criterion met

Is protein stability index at least 2? Consider P10S
criterion met

Is protein stability index at least 2? Consider L14H
criterion met

Is protein stability index at least 2? Consider L14M
criterion met

Is protein stability index at least 2? Consider R16Y
criterion met

Is protein stability index at least 2? Consider T20C
criterion met

Is protein stability index at least 2? Consider L14W
criterion not met

Is protein stability index at least 2? Consider T20D
criterion met

Is protein stability index at least 2? Consider L17Y
criterion met

Is protein stability index at least 2? Consider P8V
criterion met

Is protein stability index at least 2? Consider E22T
criterion met

Is protein stability index at least 2? Consider R5G
criterion not met

Is protein stability index at least 2? Consider E21W
criterion met

Is protein stability index at least 2? Consider M23P
criterion met

Is protein stability index at least 2? Consider P8C
criterion not met

Is protein stability index at least 2? Consider E12H
criterion met

Is protein stability index at least 2? Consider R18P
criterion met

Is protein stability index at least 2? Consider L24H
criterion met

Is protein stability index at least 2? Consider R16W
criterion met

Is protein stability index at least 2? Consider A6Y
criterion met

Is protein stability index at least 2? Consider L14I
criterion met

Is protein stability index at least 2? Consider S2T
criterion not met

Is protein stability index at least 2? Consider R18D
criterion met

Is protein stability index at least 2? Consider L24M
criterion met

Is protein stability index at least 2? Consider R18K
criterion met

Is protein stability index at least 2? Consider L24G
criterion met

Is protein stability index at least 2? Consider Q11F
criterion not met

Is protein stability index at least 2? Consider P10W
criterion not met

Is protein stability index at least 2? Consider A13D
criterion met

Is protein stability index at least 2? Consider L17N
criterion met

Is protein stability index at least 2? Consider L14R
criterion met

Is protein stability index at least 2? Consider R16T
criterion met

Is protein stability index at least 2? Consider R18S
criterion met

Is protein stability index at least 2? Consider P8W
criterion met

Is protein stability index at least 2? Consider E21A
criterion met

Is protein stability index at least 2? Consider E21D
criterion met

Is protein stability index at least 2? Consider R18L
criterion met

Is protein stability index at least 2? Consider L24F
criterion met

Is protein stability index at least 2? Consider V15D
criterion not met

Is protein stability index at least 2? Consider R5C
criterion not met

Is protein stability index at least 2? Consider E12V
criterion met

Is protein stability index at least 2? Consider E12C
criterion met

Is protein stability index at least 2? Consider E21M
criterion met

Is protein stability index at least 2? Consider E22W
criterion not met

Is protein stability index at least 2? Consider P10C
criterion met

Is protein stability index at least 2? Consider R16Q
criterion met

Is protein stability index at least 2? Consider Q11T
criterion not met

Is protein stability index at least 2? Consider A13C
criterion not met

Is protein stability index at least 2? Consider T20V
criterion met

Is protein stability index at least 2? Consider P10Q
criterion met

Is protein stability index at least 2? Consider A6I
criterion met

Is protein stability index at least 2? Consider E19G
criterion met

Is protein stability index at least 2? Consider E19R
criterion met

Is protein stability index at least 2? Consider A6D
criterion not met

Is protein stability index at least 2? Consider L17G
criterion met

Is protein stability index at least 2? Consider E21I
criterion met

Is protein stability index at least 2? Consider Q11V
criterion met

Is protein stability index at least 2? Consider E21Q
criterion met

Is protein stability index at least 2? Consider L24N
criterion met

Is protein stability index at least 2? Consider T20I
criterion met

Is protein stability index at least 2? Consider A7Q
criterion met

Is protein stability index at least 2? Consider S1E
criterion not met

Is protein stability index at least 2? Consider E22V
criterion met

Is protein stability index at least 2? Consider K3T
criterion not met

Is protein stability index at least 2? Consider E22Q
criterion met

Is protein stability index at least 2? Consider R18Y
criterion met

Is protein stability index at least 2? Consider R18N
criterion not met

Is protein stability index at least 2? Consider A13W
criterion met

Is protein stability index at least 2? Consider M23W
criterion not met

Is protein stability index at least 2? Consider S9A
criterion met

Is protein stability index at least 2? Consider E12W
criterion met

Reference source for all entries: the supplement of paper PMC10567573
